This listing pairs compounds with measured %Inh.
- System: RPS6KA4(Kin.Dom.1-N-terminal)
- Test Settings: concentration: 1 μM, replicates: in singlicate; n = 1;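 also: KINOMEscan kinase panel screen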
Reply numerically in %, unit not repeated.

Known results for compounds:
{"Compound": "Cn1cnc2c(N)ncnc21", "Observed Property": "%Inh", "Measurement": 0}
{"Compound": "COc1ccc(Nc2nccc(N3CCC(NC(=O)c4cc5ccccc5s4)C3)n2)cc1 (stereo not drawn)", "Observed Property": "%Inh", "Measurement": 15}
{"Compound": "CC(=O)c1c(C)c2cnc(Nc3ccc(N4CCNCC4)cn3)nc2n(C2CCCC2)c1=O", "Observed Property": "%Inh", "Measurement": 15}
{"Compound": "O=C1NC(=O)C(c2ccc(Cl)cc2)=C1Nc1cccc(Cl)c1", "Observed Property": "%Inh", "Measurement": 86}
{"Compound": "Nc1ncnc2occ(-c3ccc4c(c3)CCN4C(=O)Cc3cc(F)ccc3F)c12", "Observed Property": "%Inh", "Measurement": 14}
{"Compound": "COC(=O)c1cccc(NC(=O)NC2CCN(c3ccnc(Nc4ccc(OC)cc4)n3)C2)c1 (stereo not drawn)", "Observed Property": "%Inh", "Measurement": 14}

For this compound ( Fc1ccc(-c2nn3cccc(F)c3c2-c2ccncc2)cc1 ), measured %Inh is 38

For this compound ( COC(=O)c1cccc(NC(=O)NC2CCN(c3ccnc(Nc4ccc(F)cc4)n3)C2)c1 (stereo not drawn) ), measured %Inh is 0

For this compound ( COc1ccc(CSc2nnc(-c3ccc4nccn4c3)o2)cc1C(F)(F)F ), measured %Inh is 11

###

- System: ROS1
- Test Settings: concentration: 1 μM, replicates: in singlicate; n = 1
Observed Property: %Inh (%)
Reply numerically in %, unit not repeated.

{"Molecule": "COc1cccc(C2=C(Nc3cc(Cl)c(O)c(Cl)c3)C(=O)NC2=O)c1 [SB-390767]", "Measurement": 0}
{"Molecule": "CNc1nc(-c2ccc3c(N)n[nH]c3c2)cc(N2C[C@@H](C(=O)Nc3ccccc3)CC[C@H]2C)n1 [GSK2298859]", "Measurement": 36}
{"Molecule": "CC(=O)c1cccc(NC(=O)NC2CCN(c3ccnc(Nc4ccc(F)cc4)n3)C2)c1 (stereo not shown) [GSK1379710]", "Measurement": 3}

Read the next record carefully.
For this molecule ( CCCCc1nn2ncccc2c1-c1ccnc(NC2CC2)n1 [GW684374] ), measured %Inh is 8

###

- Test system: TIE1
- Test Settings: concentration: 1 μM, replicates: in singlicate; n = 1
Observed Property: %Inh (%)
Reply numerically in %, unit not repeated.

Known results for compounds:
{"Compound": "O=C(Nc1n[nH]c2nc(-c3cccs3)c(Br)cc12)C1CC1 [SB-735297]", "Tgt": "TIE1", "Observed Property": "%Inh", "Measurement Unit": "%", "Measurement": 0}
{"Compound": "CS(=O)(=O)Cc1ccc(Nc2nccc(-c3c(-c4cccc(NC(=O)C5CCCCC5)c4)nn4ncccc34)n2)cc1 [GSK350559]", "Tgt": "TIE1", "Observed Property": "%Inh", "Measurement Unit": "%", "Measurement": 3}
{"Compound": "COC(=O)C(Cc1ccccc1)NC(=O)NC1CCN(c2ccnc(Nc3ccc(F)cc3)n2)C1 (centres unmarked) [GSK1379714]", "Tgt": "TIE1", "Observed Property": "%Inh", "Measurement Unit": "%", "Measurement": 16}
{"Compound": "COC(=O)c1cccc(NC(=O)NC2CCN(c3ccnc(Nc4ccc(OC)cc4)n3)C2)c1 (centres unmarked) [GSK1379746]", "Tgt": "TIE1", "Observed Property": "%Inh", "Measurement Unit": "%", "Measurement": 0}
{"Compound": "Cc1ccccc1Cn1ccn2c(=O)cc(N3CCOCC3)nc12 [GSK2269905]", "Tgt": "TIE1", "Observed Property": "%Inh", "Measurement Unit": "%", "Measurement": 0}

For this compound ( CNC(=O)c1ccc(C)c(-n2c(C)cc(OCc3ccc(F)cc3F)c(Br)c2=O)c1 ), measured %Inh is 1

For this compound ( Cc1nccc(-c2c(-c3ccc(F)cc3)ncn2CCCN2CCOCC2)n1.Cl [SB-282975] ), measured %Inh is 0

For this compound ( Cc1cnc(N)c(/C=C/c2cncc(C(=O)NCCc3ccc(Cl)cc3Cl)c2)c1.Cl [GSK190937] ), measured %Inh is 20

Cited source: paper PMC5540273
